Biological target: Inosine-5'-monophosphate dehydrogenase 2 (Homo sapiens)
Assay: Inhibition of human recombinant type II Inosine Monophosphate Dehydrogenase. at pH 8.0
quantity measured: IC50 (nM)

P = COc1c(C)c2c(c(O)c1C/C=C(\C)CCC(=O)O)C(=O)OCC2
Q = CCc1c2c(c(O)c(C/C=C(\C)CCC(=O)O)c1OC)C(=O)OC2
R = C/C(=C\Cc1cc(C)c2c(c1O)C(=O)OC2)CCC(=O)O
S = COc1c(Br)c2c(c(O)c1C/C=C(\C)CCC(=O)O)C(=O)OC2
Put the compounds in ascending order of IC50. I would appreciate it if you listed the labels in the requested order.
Q, P, S, R
(Q: 410 nM, P: 644 nM, S: 975 nM, R: 6960 nM)

###

Organism: Homo sapiens
Assay: Inhibition of human Lymphocyte proliferation. The IC50 values were determined by interpolation using cubic spline determination.
Format: functional
IC50 values by entry
Lab book: enter the figure in µM, no units written.

Worked set:
COc1c(C)c(C)c(Br)c(N)c1C/C=C(\C)CCC(=O)O ... 4.1
CCOc1c(C)c2c(c(O)c1C/C=C(\C)CCC(=O)O)C(=O)OC2 ... 0.43
COc1c(C)c(C)c(Cl)c(N)c1C/C=C(\C)CCC(=O)O ... 4.1
COc1c(C)c(C)c(C#N)c(N)c1C/C=C(\C)CCC(=O)O ... 4.1
COc1c(C)c(C)c(C#N)c(O)c1C/C=C(\C)CCC(=O)O ... 1.7
COc1c(C)c(C)c(I)c(O)c1C/C=C(\C)CCC(=O)O ... 4.9
COc1c(C/C=C(\C)CCC(=O)O)cc(Cl)c(C)c1C ... 6.7
C/C(=C\Cc1c(C)c(C)c(C)c(Br)c1O)CCC(=O)O ... 1.65
COc1c(C)c2c(c(O)c1C/C=C(\C)CCC(=O)O)C(=O)OC2 ... 0.058
COc1c(C)c2c(c(O)c1C/C=C(\C)CCC(=O)O)C(=O)SC2 ... 1.7

# return recorded IC50 for input `C=Cc1c(C)c2c(c(O)c1C/C=C(\C)CCC(=O)O)C(=O)OC2`
0.093

Answer with the recorded IC50 for the compound listed here: `CCc1c(C)c2c(c(O)c1C/C=C(\C)CCC(=O)O)C(=O)OC2`
0.057

Recall and state the measured IC50 for `C/C(=C\Cc1c(O)c2c(c(C)c1-c1ccccc1)COC2=O)CCC(=O)O` .
2.8

Recall and state the measured IC50 for `COc1c(C)c(C)c([N+](=O)[O-])c(N)c1C/C=C(\C)CCC(=O)O` .
2.8

###

Target: Inosine-5'-monophosphate dehydrogenase 2 (Homo sapiens)
Test: Inhibition of human recombinant inosine monophosphate dehydrogenase type II.
quantity measured: IC50 (nM)

Use these answered entries as a reference point.
COc1c(C)c(C)c(I)c(O)c1C/C=C(\C)CCC(=O)O ... 592
C/C(=C\Cc1c(O)c2c(c(C)c1C#N)COC2=O)CCC(=O)O ... 15500
COc1c(C)c(C)c(C)c(O)c1C/C=C(\C)CCC(=O)O ... 959

I = COc1c(C)c(C)c(F)c(O)c1C/C=C(\C)CCC(=O)O
II = COc1c(C)c(C)c(C#N)c(N)c1C/C=C(\C)CCC(=O)O
Kindly compare I with II and tell me which has the lower IC50 figure. Kindly give the label for the entry you pick.
I
(I: 1080 nM, II: 14800 nM)
